Could you please report measured IC50 for the items listed next?
Test system: K562
Assay: Cytotoxicity against human K562 cells after 72 hrs by MTT assay
Assay type: functional, cell-based
Conditions: K562, 72 h
Answers are plain numbers, in µM.

Examples with answers:
INSERT INTO results (smilesdata, unitabbreviation, val) VALUES
  ('CSc1nc2c(Nc3ccc(Cl)cc3)c3ccccc3nc2s1', 'µM', 79.5),
  ('CSc1nc2c(Nc3cccc(/C(C)=N\O)c3)c3ccccc3nc2s1', 'µM', 32.8),
  ('CCN(CC)CCNc1nc2c(Nc3ccccc3)c3ccccc3nc2s1', 'µM', 16.8),
  ('COc1cc(NS(C)(=O)=O)ccc1Nc1c2ccccc2nc2ccccc12', 'µM', 19.9),
  ('CCN(CC)CCCNc1nc2c(Nc3ccc(C#N)cc3)c3ccccc3nc2s1', 'µM', 12.9);

Batch of 2 compounds: report IC50 for each.
1. CN1CCN(c2nc3c(Nc4ccccc4)c4ccccc4nc3s2)CC1
2. CSc1nc2c(Nc3cccc(Cl)c3)c3ccccc3nc2s1

1: 73; 2: 80.3

---

Could you please report measured pIC50 for the items listed next?
System: K562
Assay: Cytotoxicity against human K562 cells after 72 hrs by MTT assay
Type: functional, cell-based
Details: K562, 72 h
pIC50: −log10 of the molar value.

Examples with answers:
INSERT INTO assay_data (smilesdata, val) VALUES
  ('CSc1nc2c(Nc3ccccc3)c3cc(F)ccc3nc2s1', '< 4.10'),
  ('CSc1nc2c(Nc3cccc(N)c3)c3ccccc3nc2s1', '< 4.10');

API: the following record is the query input.
Hello, I am looking for reported pIC50 with K562 for `CSc1nc2c(Nc3cccc(NC(C)=O)c3)c3ccccc3nc2s1` . Could you help?
< 4.10

---

System: SW-620
Experiment: Cytotoxicity against human SW620 cells after 72 hrs by MTT assay
Assay type: functional, cell-based
Conditions: SW-620, 72 h
recordedMetric: pIC50
Give bare numbers, as −log10 of the molar value.

INSERT INTO measurements (compound, tgt, val) VALUES
  ('CCN(CC)CCCNc1nc2c(Nc3ccccc3)c3ccccc3nc2s1', 'SW-620', 4.78);

Batch of 3 compounds: report pIC50 for each.
1. CCN(CC)CCNc1nc2c(Nc3ccc(Cl)cc3)c3ccccc3nc2s1
2. CCN(CC)CCCNc1nc2c(Nc3cccc(Cl)c3)c3ccccc3nc2s1
3. CCN(CC)CCNc1nc2c(Nc3cccc(C#N)c3)c3ccccc3nc2s1

1. 4.91
2. 4.99
3. 4.84

Batch of 7 compounds: report pIC50 for each.
1. CSc1nc2c(Nc3cccc(C(F)(F)F)c3)c3ccccc3nc2s1
2. CCN(CC)CCNc1nc2c(Nc3ccc(OC)cc3)c3ccccc3nc2s1
3. COc1cc(NS(C)(=O)=O)ccc1Nc1c2ccccc2nc2ccccc12 [AMSACRINE]
4. CCN(CC)CCNc1nc2c(Nc3cccc(OC)c3)c3ccccc3nc2s1
5. CCN(CC)CCCNc1nc2c(Nc3ccc(Cl)cc3)c3ccccc3nc2s1
6. CCN(CC)CCNc1nc2c(Nc3cccc(Cl)c3)c3ccccc3nc2s1
7. CCN(CC)CCNc1nc2c(Nc3ccc(C#N)cc3)c3ccccc3nc2s1

1. 4.21
2. 4.79
3. 4.78
4. 4.70
5. 5.13
6. 4.75
7. 4.78
